The following sequences are shown together with reported phosphorylation enrichment values.
Test system: Fer (mouse)
Experiment: phosphorylation enrichment, bacterial display (enrichment ratio); higher = better substrate or ligand; peptides without Tyr show the background;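 further: 11-residue human phosphosite peptides and single-mutation variants displayed on the E. coli surface, counted by deep sequencing, each peptide's frequency after selection divided by its frequency in the unselected input library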;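 further: frequency after pTyr selection over input frequency; kinase dosed for 20-30% of maximal phosphorylation in three min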
// no unit, no text: just the number

Take a look at these entries with their results.
KPVEEYANCHL [TF_Y593] : 0.481
PCPANYFAFKI [FAM3D_Y65] : 1.12
QGIYGYHHYMQ [UFSP2_Y287] : 13.8

Moving on to another sequence below.
// query Under Fer (mouse): phosphorylation enrichment value of ENFDDYMKEVG [FABP4_Y20] ?
// result 0.687

---

The following sequences are shown together with reported phosphorylation enrichment values.
Tested on: Fer (mouse)
Experiment: phosphorylation enrichment, bacterial display (enrichment ratio); higher = better substrate or ligand; peptides without Tyr show the background
// no unit, no text: just the number

Take a look at these entries with their results.
SSYDTYHLSRE [KIR3DL2_Y253_I252T] : 0.457
ASMAKYFASGI [ACADSB_Y372_E376G_YF] : 0.374
EESSHYSTEKE [ADAR_Y587] : 0.531

// query Need phosphorylation enrichment, item EVASVYESYQP [MAVS_Y92_Q93E]
// result 10.1

---

Biological target: FGFR3 (UniProt P22607)
Sequence (P22607 whole entry, looked up): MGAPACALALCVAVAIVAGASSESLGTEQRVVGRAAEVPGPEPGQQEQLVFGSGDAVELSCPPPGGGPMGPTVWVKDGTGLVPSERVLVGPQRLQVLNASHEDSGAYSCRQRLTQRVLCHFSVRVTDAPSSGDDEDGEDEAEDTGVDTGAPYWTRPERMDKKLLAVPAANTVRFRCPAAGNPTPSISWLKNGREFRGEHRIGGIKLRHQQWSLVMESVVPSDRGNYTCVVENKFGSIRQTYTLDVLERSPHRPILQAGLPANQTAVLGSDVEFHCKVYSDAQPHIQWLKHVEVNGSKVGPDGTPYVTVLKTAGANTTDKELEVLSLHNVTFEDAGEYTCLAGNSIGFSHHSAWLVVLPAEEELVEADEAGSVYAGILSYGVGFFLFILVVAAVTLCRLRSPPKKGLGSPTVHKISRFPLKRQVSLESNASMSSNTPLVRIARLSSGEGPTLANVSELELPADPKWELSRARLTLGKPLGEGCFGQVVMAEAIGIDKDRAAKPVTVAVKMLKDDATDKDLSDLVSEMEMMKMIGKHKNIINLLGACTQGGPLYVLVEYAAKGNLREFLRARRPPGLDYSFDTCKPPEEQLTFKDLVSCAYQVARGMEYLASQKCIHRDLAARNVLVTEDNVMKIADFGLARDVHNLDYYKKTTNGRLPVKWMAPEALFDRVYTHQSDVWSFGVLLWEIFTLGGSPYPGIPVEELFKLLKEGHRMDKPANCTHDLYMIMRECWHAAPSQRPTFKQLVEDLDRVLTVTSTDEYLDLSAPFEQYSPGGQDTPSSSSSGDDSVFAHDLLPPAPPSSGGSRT
Assay: phosphorylation enrichment, bacterial display (enrichment ratio); higher = better substrate or ligand; peptides without Tyr show the background
Is phosphorylation enrichment at least 0.6? Then 1. If not, -1.

TVFENYVADIK [RHOA_Y42_E47K] : 1
MRTMGYMPREM [CABP5_Y62_T65R] : -1
LDFNEYFRDLN [HPRT1_Y198_YF] : 1
IALSKYGRVKW [FGF6_Y186_R191W] : -1
GGSTFYIDTNA [ACTL6A_Y69_P66S_YF] : 1
FSIDHYLGKEM [G6PD_Y202_R198S_YF] : 1

// query hey, is phosphorylation enrichment for this one >= 0.6? NFRTTYVNANE [KCNH2_Y475]
// result 1

// query hey, is phosphorylation enrichment for this one >= 0.6? GDFFRYLAEVA [YWHAG_Y133_YF]
// result 1

// query hey, is phosphorylation enrichment for this one >= 0.6? MSDVPYVMNRG [ACAT1_Y161_N158D]
// result -1

// query hey, is phosphorylation enrichment for this one >= 0.6? EVASVYESYQP [MAVS_Y92_Q93E]
// result 1

// query hey, is phosphorylation enrichment for this one >= 0.6? CTTFHYNFMCN [TP53_Y234_I232F_YF]
// result 1

// query hey, is phosphorylation enrichment for this one >= 0.6? ICRWVYPLTPE [EIF2B5_Y319_R315C]
// result 1

// query hey, is phosphorylation enrichment for this one >= 0.6? FVHDNYVIWRT [CPS1_Y1450_R1453W]
// result 1

---

Biological target: FGFR3 (UniProt P22607)
Test: phosphorylation enrichment, bacterial display (enrichment ratio); higher = better substrate or ligand; peptides without Tyr show the background
REPORTED PROPERTY: phosphorylation enrichment
// no unit, no text: just the number

Take a look at these entries with their results.
YETDYYQKGGK [INSR_Y1190_R1191Q] : 0.907
LHRHAYPEQRQ [DPPA2_Y127] : 0.577
HDRNTYEKFLE [TF_Y666_G671E_YF] : 0.522
IYHLSYIHNCE [PDE6B_Y227_L228I] : 2.16
SSPVPYLSPET [TJP1_Y931] : 0.627
VVQGLYKSMPK [KBTBD2_Y250] : 0.537
SDPIVYTLENI [EMR1_Y534_I533V] : 0.755
KTGNIYRTEFG [MRPL3_Y265_M261T_YF] : 0.491
GKLIFYDLRGE [KARS1_Y145] : 0.584
KASIMYPSNNC [CXCL11_Y52] : 0.49

// query Need phosphorylation enrichment, item PFIDSYEKDVA [PGM1_Y521_L516P_YF]
// result 0.636

// query Need phosphorylation enrichment, item NRDNTYNPVSE [FGA_Y127_R129P]
// result 0.627

// query Need phosphorylation enrichment, item NTEGGYRCICA [CRELD1_Y328]
// result 0.636

// query Need phosphorylation enrichment, item ESAAIYNPVIF [RHO_Y301_K296E_YF]
// result 0.675
